Reported IC50 values for a set of compounds
Test system: IFN-a/Jak1Tyk2
Assay: Co-stimulation assay in lysed whole blood: IFNa (JAK1/TYK2) stimulated STAT1 phosphorylation
Format: cell-based
Conditions: 20 min, lysed human whole blood, IFNa 100 ng/mL + GM-CSF 10 ng/mL, pSTAT1 by flow cytometry
Method: Dilute RBC lysis buffer to 1× in distilled water. Add 2 mL blood to 38 mL of 1×RBC-lysis buffer. Incubate for 15 mins at RT, in dark. Spin at 300 g, 5 mins, to collect the pellet. Re-lyse if necessary. Re-suspend pellet in 5 mL of cRPMI. Aliquot 80 μL of lysed human blood in to wells of 96 deep-well plate. Add 10 μl of (10× conc.) of different concentrations of compounds to all wells except controls (unstained and unstimulated) and mix it with the help of 100 uL multichannel. […]
RECORDED ENDPOINT: IC50

1) [2H]C([2H])([2H])Nc1cc(Nc2cc(F)cc3c2OCCO3)nc2c(C(=O)N[C@@H]3C[C@@H]3F)cnn12 : < 100 nM
2) CNc1cc(Nc2cccc3c2OCCO3)nc2c(C(=O)NC3CCOC3)cnn12 (centres unmarked) : 100 to 1000 nM
3) CNc1cc(Nc2ccnn2C)nc2c(C(=O)NC3CC3)cnn12 : 100 to 1000 nM
4) CNc1cc(Nc2c(Cl)ccc3c2OCO3)nc2c(C(=O)NCC(C)(C)CO)cnn12 : 1000 to 10000 nM
5) CC(C)(CO)CNC(=O)c1cnn2c(N)cc(Nc3cccc4c3OCO4)nc12 : 100 to 1000 nM
6) CNc1cc(Nc2ccnn2CCO)nc2c(C(=O)NC3CC3)cnn12 : 1000 to 10000 nM
7) CNc1cc(Nc2cccc3c2OCCO3)nc2c(C(=O)NC3CC3)cnn12 : < 100 nM
8) CNc1cc(Nc2cccn(-c3ccccn3)c2=O)nc2c(C(=O)NC3CCC3)cnn12 : < 100 nM
9) CNc1cc(Nc2cc(F)cc(F)c2OC)nc2c(C(=O)NC3CC3F)cnn12 (centres unmarked) : < 100 nM
10) CNc1cc(Nc2cccc3c2OCCO3)nc2c(C(=O)NC3CCC3)cnn12 : < 100 nM
11) CNc1cc(Nc2cnn(CCOC)c2)nc2c(C(=O)NC3CC3)cnn12 : > 300 nM
12) [2H]C([2H])([2H])Nc1cc(Nc2cc(Cl)cc3c2OCCO3)nc2c(C(=O)NC3CC3)cnn12 : < 100 nM
13) CNc1cc(Nc2cc(F)cc(F)c2OC)nc2c(C(N)=O)cnn12 : > 300 nM
14) CNc1cc(Nc2ccc3c(c2)OCCO3)nc2c(C(=O)NC3CC3)cnn12 : < 100 nM
15) CNc1cc(Nc2ccccc2-n2cccn2)nc2c(C(=O)NC3CC3)cnn12 : > 300 nM
16) CNc1cc(Nc2cccc(N3CCN(C)CC3)c2)nc2c(C(=O)NC3CC3)cnn12 : < 100 nM
17) CNc1cc(Nc2cn(C)nc2C(=O)Nc2ccc(N(C)C)cc2)nc2c(C(=O)NC3CC3)cnn12 : < 100 nM
